system: KPL4; assay: Cell growth inhibition assay, breast tumor cell line (Cell Titer Glo); format: cell-based; conditions: Homo sapiens, 72 h; KPL4 (HER2+), 3 days; read-out: Single agent IC50, Compound B
readout kind: IC50 (nM)
Dear colleague, please return just the value in nM, with no unit written.

Reported IC50 of "COc1ncc(-c2ccc3nccc(-c4ccnnc4)c3c2)cc1NS(=O)(=O)c1ccc(F)cc1F" : 3

* * *

system: PLC/RF/5; assay: Cell growth inhibition assay, hepatocellular carcinoma cell line (Cell Titer Glo); type: cell-based; conditions: Homo sapiens, 72 h, PLC/RF/5, HGF −, 3 days; read-out: Single agent IC50, Compound B
readout kind: pIC50
pIC50 here is simply -log10 of the concentration when that concentration is written in mol/L.

GET /value?item= "COc1ncc(-c2ccc3nccc(-c4ccnnc4)c3c2)cc1NS(=O)(=O)c1ccc(F)cc1F" &field=pIC50 returns 7.74

* * *

tested on: KPL1; test: Cell growth inhibition assay, breast tumor cell line (Cell Titer Glo); type: cell-based; conditions: Homo sapiens, KPL-1, 72 h; KPL1 (HER2−), 3 days; read-out: Single agent IC50, Compound B
readout kind: IC50 (nM)
Reply numerically in nM, unit not repeated.

// IC50 value for "COc1ncc(-c2ccc3nccc(-c4ccnnc4)c3c2)cc1NS(=O)(=O)c1ccc(F)cc1F" : 8
